System: PC-3
assay remarks: Effective dose to show cytotoxicity against prostate cancer PC-3 cell line was determined
Assay type: functional
reported conditions: Homo sapiens, read-out: ED50 (the source's name)
property label: pEC50
# reply with the number alone; pEC50 is -log10 of concentration in mol/L

Asked: Dear colleague, I am looking for the recorded pEC50 of the following compound: `Cc1c2ccncc2c(C)c2c1[nH]c1ccc(CO)cc12`
Given back: 6.35

* * *

Recorded measurements of GI50, one per entry
System: NCI-H322M
assay remarks: The compound was evaluated for cytotoxicity against NCI-H322M non-small cell lung cancer cell line
Type: functional
reported conditions: Homo sapiens
The figure you give is taken to be in nM; do not add the unit.

compound=Cc1c2ccncc2c(C)c2c1[nH]c1ccc(CN(CCO)CCO)cc12 readout_units=nM value=220
compound=CCN(CC)CCNCc1ccc2[nH]c3c(C)c4ccncc4c(C)c3c2c1 readout_units=nM value=60
compound=Cc1c2ccncc2c(C)c2c1[nH]c1ccc(CO)cc12 readout_units=nM value=620

Asked: What measured GI50 goes with `Cc1c2ccncc2c(C)c2c1[nH]c1ccc(CNCCN(C)C)cc12` ?
Given back: 250

* * *

Tested on: M14
assay remarks: Effective dose to show cytotoxicity against melanoma M14 cell line was determined
Type: functional
reported conditions: Homo sapiens, read-out: ED50 (the source's name)
property label: pEC50
By convention, pEC50 is the negative base-10 log of a molar concentration.

Asked: For the compound `Cc1c2ccncc2c(C)c2c1[nH]c1ccc(CO)cc12` , what pEC50 is on record?
Given back: 6.22
